# Tested on: Escherichia coli
# assayNotes: Antibacterial activity against Escherichia coli at 50 ug/ml after 18 to 24 hrs by disc diffusion method
# Type: functional
# particulars: read-out: IZ
property: zone of inhibition at 50 µg/mL (mm)
Answers are plain numbers, in mm.

Field: example entries. Status: answers known.
N=c1sc(-c2cccs2)nn1CC(=O)N1c2ccccc2Sc2ccccc21 = 6
Cc1nn(CC(=O)N2c3ccccc3Sc3ccc(Cl)cc32)c(=N)s1 = 14
COc1ccc(-c2nn(CC(=O)N3c4ccccc4Sc4ccc(Cl)cc43)c(=N)s2)cc1OC = 4
Cc1ccc(-c2nn(CC(=O)N3c4ccccc4Sc4ccc(C(F)(F)F)cc43)c(=N)s2)cc1 = 11
O=C(O)c1cn(C2CC2)c2cc(N3CCNCC3)c(F)cc2c1=O = 27

For every listed record, write down its zone of inhibition at 50 µg/mL.
1. N=c1sc(-c2ccc(F)cc2)nn1CC(=O)N1c2ccccc2Sc2ccccc21
2. N=c1sc(-c2ccc(Cl)cc2)nn1CC(=O)N1c2ccccc2Sc2ccccc21
3. N=c1sc(-c2ccc(F)cc2)nn1CC(=O)N1c2ccccc2Sc2ccc(C(F)(F)F)cc21
4. Cc1nn(CC(=O)N2c3ccccc3Sc3ccccc32)c(=N)s1

1: 8; 2: 8; 3: 9; 4: 20

Form field zone of inhibition at 50 µg/mL for item `Cc1nn(CC(=O)N2c3ccccc3Sc3ccc(C(F)(F)F)cc32)c(=N)s1` on Escherichia coli: 15

* * *

# Tested on: Mycobacterium tuberculosis
# assayNotes: Antimycobacterial activity against Mycobacterium tuberculosis H37Rv ATCC 27294 after 5 days by microplate alamar blue assay
# Type: functional
# particulars: H37Rv ATCC 27294, 120 h
Criterion: MIC strictly under 3 µg/mL. Met: true. Not met: false.

Check out these entries, answers already filled in.
Cc1ccc(-c2nn(CC(=O)N3c4ccccc4Sc4ccc(C(F)(F)F)cc43)c(=N)s2)cc1 = false
N=c1sc(-c2ccc(Cl)cc2)nn1CC(=O)N1c2ccccc2Sc2ccccc21 = false
Cc1ccc(-c2nn(CC(=O)N3c4ccccc4Sc4ccccc43)c(=N)s2)cc1 = true

MIC under 3 µg/mL? Item: `CCCc1nn(CC(=O)N2c3ccccc3Sc3ccc(Cl)cc32)c(=N)s1`
true

MIC under 3 µg/mL? Item: `N=c1sc(-c2ccc(F)cc2)nn1CC(=O)N1c2ccccc2Sc2ccc(Cl)cc21`
false

MIC under 3 µg/mL? Item: NNC(=O)c1ccncc1 [ISONIAZID]
true

MIC under 3 µg/mL? Item: `N=c1sc(-c2cccs2)nn1CC(=O)N1c2ccccc2Sc2ccc(Cl)cc21`
false

MIC under 3 µg/mL? Item: `Cc1nn(CC(=O)N2c3ccccc3Sc3ccccc32)c(=N)s1`
true

* * *

# System: Mycobacterium tuberculosis
# assayNotes: Antimycobacterial activity against Mycobacterium tuberculosis H37Rv ATCC 27294 after 5 days by microplate alamar blue assay
# Format: functional
# particulars: H37Rv ATCC 27294, 120 h
property: MIC (µg/mL)
Numbers only, in µg/mL.

For every listed record, write down its MIC.
1. N=c1sc(-c2ccc(F)cc2)nn1CC(=O)N1c2ccccc2Sc2ccccc21
2. COc1ccc(-c2nn(CC(=O)N3c4ccccc4Sc4ccccc43)c(=N)s2)cc1OC
3. CC[C@@H](CO)NCCN[C@@H](CC)CO [ETHAMBUTOL]
4. Cc1nn(CC(=O)N2c3ccccc3Sc3ccc(C(F)(F)F)cc32)c(=N)s1
5. CN[C@@H]1[C@H](O[C@H]2[C@H](O[C@H]3[C@H](O)[C@@H](O)[C@H](N=C(N)N)[C@@H](O)[C@@H]3N=C(N)N)O[C@@H](C)[C@]2(O)C=O)O[C@@H](CO)[C@H](O)[C@H]1O [STREPTOMYCIN]
6. Cc1nn(CC(=O)N2c3ccccc3Sc3ccc(Cl)cc32)c(=N)s1
7. N=c1sc(-c2ccc(Cl)cc2)nn1CC(=O)N1c2ccccc2Sc2ccc(C(F)(F)F)cc21

3.12
12.5
3.12
1.6
6.25
1.6
25

Quick note, MIC for `COc1ccc(-c2nn(CC(=O)N3c4ccccc4Sc4ccc(C(F)(F)F)cc43)c(=N)s2)cc1OC` landed at 50

* * *

Would you mind telling me the reported zone of inhibition at 50 µg/mL of each entry?
# Test system: Escherichia coli
# assayNotes: Antibacterial activity against Escherichia coli at 50 ug/ml after 18 to 24 hrs by disc diffusion method
# Type: functional
# particulars: read-out: IZ
Give bare numbers, in mm.

N=c1sc(-c2cccs2)nn1CC(=O)N1c2ccccc2Sc2ccc(Cl)cc21 = 4
CCCc1nn(CC(=O)N2c3ccccc3Sc3ccc(Cl)cc32)c(=N)s1 = 8
Cc1ccc(-c2nn(CC(=O)N3c4ccccc4Sc4ccc(Cl)cc43)c(=N)s2)cc1 = 7
Cc1ccc(-c2nn(CC(=O)N3c4ccccc4Sc4ccccc43)c(=N)s2)cc1 = 24

Now let's try a different one.
Quick note, zone of inhibition at 50 µg/mL for `COc1ccc(-c2nn(CC(=O)N3c4ccccc4Sc4ccc(C(F)(F)F)cc43)c(=N)s2)cc1OC` landed at 8

* * *

# Tested on: Mycobacterium tuberculosis
# assayNotes: Antimycobacterial activity against Mycobacterium tuberculosis H37Rv ATCC 27294 after 5 days by microplate alamar blue assay
# Assay type: functional
# particulars: H37Rv ATCC 27294, 120 h
property: MIC (µg/mL)
Answers are plain numbers, in µg/mL.

COc1ccc(-c2nn(CC(=O)N3c4ccccc4Sc4ccc(Cl)cc43)c(=N)s2)cc1OC = 50
O=C(O)c1cn(C2CC2)c2cc(N3CCNCC3)c(F)cc2c1=O = 3.12
N=c1sc(-c2ccc(F)cc2)nn1CC(=O)N1c2ccccc2Sc2ccc(C(F)(F)F)cc21 = 1.6
N=c1sc(-c2cccs2)nn1CC(=O)N1c2ccccc2Sc2ccccc21 = 50
CCCc1nn(CC(=O)N2c3ccccc3Sc3ccc(C(F)(F)F)cc32)c(=N)s1 = 3.12

For every listed record, write down its MIC.
1. Cc1ccc(-c2nn(CC(=O)N3c4ccccc4Sc4ccc(Cl)cc43)c(=N)s2)cc1
2. CCCc1nn(CC(=O)N2c3ccccc3Sc3ccccc32)c(=N)s1

1: 50; 2: 1.6

For every listed record, write down its MIC.
1. N=c1sc(-c2ccc(Cl)cc2)nn1CC(=O)N1c2ccccc2Sc2ccc(Cl)cc21
2. N=c1sc(-c2cccs2)nn1CC(=O)N1c2ccccc2Sc2ccc(C(F)(F)F)cc21

1: 1.6; 2: 50

* * *

# System: Escherichia coli
# assayNotes: Antibacterial activity against Escherichia coli at 75 ug/ml after 18 to 24 hrs by disc diffusion method
# Format: functional
# particulars: read-out: IZ
Would you mind telling me the reported zone of inhibition at 75 µg/mL of each entry?
One number for each entry, in mm.

Cc1nn(CC(=O)N2c3ccccc3Sc3ccc(C(F)(F)F)cc32)c(=N)s1 = 20
CCCc1nn(CC(=O)N2c3ccccc3Sc3ccc(Cl)cc32)c(=N)s1 = 12

For every listed record, write down its zone of inhibition at 75 µg/mL.
1. COc1ccc(-c2nn(CC(=O)N3c4ccccc4Sc4ccccc43)c(=N)s2)cc1OC
2. N=c1sc(-c2ccc(Cl)cc2)nn1CC(=O)N1c2ccccc2Sc2ccc(C(F)(F)F)cc21
3. COc1ccc(-c2nn(CC(=O)N3c4ccccc4Sc4ccc(C(F)(F)F)cc43)c(=N)s2)cc1OC
4. Cc1ccc(-c2nn(CC(=O)N3c4ccccc4Sc4ccccc43)c(=N)s2)cc1

1. 16
2. 12
3. 10
4. 27

For every listed record, write down its zone of inhibition at 75 µg/mL.
1. N=c1sc(-c2cccs2)nn1CC(=O)N1c2ccccc2Sc2ccc(C(F)(F)F)cc21
2. N=c1sc(-c2cccs2)nn1CC(=O)N1c2ccccc2Sc2ccc(Cl)cc21
3. N=c1sc(-c2ccc(F)cc2)nn1CC(=O)N1c2ccccc2Sc2ccc(C(F)(F)F)cc21

10
8
11

* * *

# System: Escherichia coli
# assayNotes: Antibacterial activity against Escherichia coli at 75 ug/ml after 18 to 24 hrs by disc diffusion method
# Format: functional
# particulars: read-out: IZ
Label Not met if zone of inhibition at 75 µg/mL falls below 10 mm; label Met in every other case.

Check out these entries, answers already filled in.
O=C(O)c1cn(C2CC2)c2cc(N3CCNCC3)c(F)cc2c1=O = Met
N=c1sc(-c2ccc(F)cc2)nn1CC(=O)N1c2ccccc2Sc2ccccc21 = Met
CCCc1nn(CC(=O)N2c3ccccc3Sc3ccccc32)c(=N)s1 = Met
N=c1sc(-c2ccc(Cl)cc2)nn1CC(=O)N1c2ccccc2Sc2ccc(Cl)cc21 = Met
COc1ccc(-c2nn(CC(=O)N3c4ccccc4Sc4ccc(Cl)cc43)c(=N)s2)cc1OC = Not met
CCCc1nn(CC(=O)N2c3ccccc3Sc3ccc(C(F)(F)F)cc32)c(=N)s1 = Not met

Tell me whether zone of inhibition at 75 µg/mL is at least 10 mm here: `N=c1sc(-c2cccs2)nn1CC(=O)N1c2ccccc2Sc2ccccc21`
Not met

Tell me whether zone of inhibition at 75 µg/mL is at least 10 mm here: `Cc1nn(CC(=O)N2c3ccccc3Sc3ccc(Cl)cc32)c(=N)s1`
Met

Tell me whether zone of inhibition at 75 µg/mL is at least 10 mm here: `N=c1sc(-c2ccc(F)cc2)nn1CC(=O)N1c2ccccc2Sc2ccc(Cl)cc21`
Met

Data provenance is ChEMBL document CHEMBL3739317.
